// provenance: the OligoGym collection

Target: PDPK1
Conditions: ASO; further: test concentration or dose not given here
These antisense oligonucleotides have a phosphorothioate backbone; sugars and methylation of C are not fully specified.
parameter.measured: remaining target (mRNA or protein) (fraction of control)

- GCTGTTCCCACGAATGAG: 0.39
- AGACTTTTGCTGTTCCAA: 0.28
- AGGCGCGACATGACATCC: 0.25
- AACAACAACCTCTTCTCA: 0.7
- TGAGCAGCTCTGGAGAAA: 0.85
- ATCGGGTACAGGTCTCAT: 0.68
- TTTAAGTAGTTCTCCATT: 0.39
- AAAAGAGCCTTCCCCAAG: 0.88
- AACTGGTGCCAAGGGTTT: 0.54
- TCCTGTTAGGCGTGTGGA: 0.53
- CTTCCATTTCCTCACAGC: 0.33
- CTCAGGCCGCTTCTTCCG: 0.53

====

Target: RHOC
Conditions: ASO
These antisense oligonucleotides have a phosphorothioate backbone; sugars and methylation of C are not fully specified.
parameter.measured: remaining target (mRNA or protein) (fraction of control)

• AGGGCAGGGCATAGGCGT = 0.69
• GCAGGAGGGAACTGAAAA = 0.73
• GGAACTGAAAATGGAGCC = 0.98
• TTCTCAAAGACAGTAGGG = 0.98
• AGGCACCATCCCCAACGA = 0.19
• TCCCACAGGCACCATCCC = 0.3
• ATGAGGAGGCAGGTCTTC = 0.59
• AGACACTTTCCTGTGAGC = 0.31
• GGCACCATCCCCAACGAT = 0.19

====

Target: RAF1
Conditions: ASO
These antisense oligonucleotides have a phosphorothioate backbone; sugars and methylation of C are not fully specified.
parameter.measured: remaining target (mRNA or protein) (fraction of control)

• GGTGCAAAGTCAACTAGAAG = 0.88
• TCCTCCTCCCCGCGGCGGGT = 0.95
• GCCGCCCCAACGTCCTGTCG = 0.42
• TTGTCAGGTGCAATAAAAAC = 0.88
• GTCTGGCGCTGCACCACTCT = 0.35

====

Conditions: ASO
These antisense oligonucleotides have a phosphorothioate backbone; sugars and methylation of C are not fully specified.
So basically, if remaining target (mRNA or protein) (fraction of control) comes in under 0.7 it's class 1, and if it's 0.7 or more it's class 0.

• GCATCTGCTTGATGAAGG = class 0
• GCTGTGTCTCTGGGCATC = class 0
• CTTCTTGCTGCCCTCGGG = class 0
• CGCACAGCCCTTCACGGCAA = class 1
• AGCCAAATGGGAACTCACAG = class 0
• AAAGCCGTGGTGAACTGACT = class 0
• GCGCGTCCGGTGCTCCCA = class 0
• ACGTAGCCCTCCTCGGTG = class 0
• CGCTCCGAAAAGAGACAG = class 0
• CTCGATCGCTCCTCGTGC = class 0
• GTGGTTGCGTGCCGATTCAC = class 1
• CTTTCAAAGGAGGGAAAC = class 0
• ACTGCCTTCTCTGCCCACTT = class 1
• GTAGATGAGGGCGATCAC = class 0
• TCCTTGCCTGAAACACCC = class 0
• CTGCTGTATCATTTTCTT = class 0
• GATGAACCTCTTGGCTGC = class 0
• CTTTGTTTCGGTTGCTGC = class 1
• CCACTAGAGTGCGCCAGA = class 0
• AACTGAAATAACAACTTA = class 0
• CTCCAGGATGTCGGTTTT = class 0
• CCTTCAAAAGTTGTGCGG = class 0
• GGTAGGTCGTAGAAGATG = class 0
• CCCTAGTCCACAGGTTCC = class 0
• ATCCGCAGGTTGGTTTTC = class 0
• TGGAGAGATAGACCAGGA = class 1
• GACTTCCTTGCCTGAAAC = class 0
• CCAAAGAGCTGCTGGGAA = class 0
